These entries and their values trace back to patent EP0761672A1.

test system: Staphylocoques Pénicilline résistants; assay: In vitro activity, dilution method in solid medium (MIC); format: cell-based; conditions: Staphylocoques Pénicilline résistants (22 souches); geometric mean of all MICs of the strain group; 24 h incubation at 37°C; read-out: concentrations minimales inhibitrices (CMI), moyennes géométriques
Measured MIC, listed per entry for reference.
State just the number; it will be interpreted in µg/mL.

Notebook entry, Staphylocoques Pénicilline résistants assay: MIC of `Nc1nc(/C(=N/OCc2cc(Cl)c(O)c(O)c2Cl)C(=O)N[C@@H]2C(=O)N3C(C(=O)[O-])=C(/C=C/C[n+]4cccc5c4CCC5)CS[C@H]23)cs1` = ?
1.37

Then what about the compound `Nc1nc(/C(=N/OCc2cc(Cl)c(O)c(O)c2Cl)C(=O)N[C@@H]2C(=O)N3C(C(=O)[O-])=C(/C=C/C[n+]4ccn5ccccc54)CS[C@H]23)cs1` ?
0.91

Then what about the compound `Nc1nc(/C(=N/OCc2cc(F)c(O)c(O)c2F)C(=O)N[C@@H]2C(=O)N3C(C(=O)[O-])=C(/C=C/C[n+]4cccc5c4CCC5)CS[C@H]23)cs1` ?
0.63

Then what about the compound `Nc1nc(/C(=N/OCc2cc(O)c(O)c(F)c2)C(=O)N[C@@H]2C(=O)N3C(C(=O)[O-])=C(/C=C/C[n+]4cccc5ccccc54)CS[C@H]23)cs1` ?
0.3

Consider the record given below.
Notebook entry, Staphylocoques Pénicilline résistants assay: MIC of `Nc1nc(/C(=N/OCc2cc(F)c(O)c(O)c2F)C(=O)N[C@@H]2C(=O)N3C(C(=O)[O-])=C(/C=C/C[n+]4ccn5ccccc54)CS[C@H]23)cs1` = ?
0.55
